Biological target: T1, TNFR1 (Homo sapiens, UniProt P19438)
T1 chain: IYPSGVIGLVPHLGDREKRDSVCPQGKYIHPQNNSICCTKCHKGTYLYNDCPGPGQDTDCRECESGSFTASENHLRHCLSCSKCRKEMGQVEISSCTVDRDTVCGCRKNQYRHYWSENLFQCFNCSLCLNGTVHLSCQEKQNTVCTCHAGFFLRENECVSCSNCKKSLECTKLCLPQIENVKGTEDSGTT
Experiment: yeast display SC50
Test Readout: apparent Kd (screen) (nM)
# number only, unit nM dropped from output

[
  {
    "Binder": "A76T (designed binder) MTLQELLREEALRRAEAEAFRYALELLAEKFPEQKEYLLDLAEEIESQIRSLSGVDVEDVRKFLDKEWAWVKELLTEHPAELAEVEAARAARLAELRAEVEAKVAA",
    "Unit Abbreviation": "nM",
    "Measured Result": 0.405
  }
]

Query binder follows.
In: Need apparent Kd (screen), item W68R (designed binder) MTLQELLREEALRRAEAEAFRYALELLAEKFPEQKEYLLDLAEEIESQIRSLSGVDVEDVRKFLDKERAWVKELLAEHPAELAEVEAARAARLAELRAEVEAKVAA
Out: 2.48
